Where do the numbers come from? From patent US7064204B2.

# experimentalSystem: human A2B adenosine receptors (Homo sapiens)
# Construct: expressed in transfected cells; host or cells: HEK-293 cells
# Sequence (P29275 whole entry): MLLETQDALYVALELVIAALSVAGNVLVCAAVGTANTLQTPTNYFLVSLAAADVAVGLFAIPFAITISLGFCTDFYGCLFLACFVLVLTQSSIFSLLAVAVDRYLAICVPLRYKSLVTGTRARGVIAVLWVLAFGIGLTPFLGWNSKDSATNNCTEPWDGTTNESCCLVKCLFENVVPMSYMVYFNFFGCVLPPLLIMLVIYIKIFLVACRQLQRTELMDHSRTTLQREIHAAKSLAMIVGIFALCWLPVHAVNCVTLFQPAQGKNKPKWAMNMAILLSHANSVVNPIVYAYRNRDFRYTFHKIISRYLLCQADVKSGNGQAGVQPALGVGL
# methodNotes: Displacement of [3H]DPCPX binding at human A2B adenosine receptors expressed in HEK-293 cells
# assayConditions: Table 3: [3H]DPCPX, HEK-293 cells
Mark 1 for Ki under 40 nM, 0 if at or over.

>  <structureSmilesString>
CCNc1c2c(nc(NC(=O)Nc3ccc(OC)cc3)n3nc(-c4ccco4)nc23)nn1C

>  <groupLabel>
1

$$$$
>  <structureSmilesString>
CCNc1c2c(nc(NC(=O)Cc3ccc4c(c3)OCO4)n3nc(-c4ccco4)nc23)nn1C

>  <groupLabel>
0

$$$$
>  <structureSmilesString>
COc1ccc(NC(=O)Nc2nc3nn(C)c(N4CCN(C)CC4)c3c3nc(-c4ccco4)nn23)cc1

>  <groupLabel>
1

$$$$
>  <structureSmilesString>
CSc1c2c(nc(N)n3nc(-c4ccco4)nc23)nn1CCCc1ccccc1

>  <groupLabel>
1

$$$$
>  <structureSmilesString>
CN1CCN(c2c3c(nc(N)n4nc(-c5ccco5)nc34)nn2C)CC1

>  <groupLabel>
1

$$$$
>  <structureSmilesString>
CCCSc1c2c(nc(N)n3nc(-c4ccco4)nc23)nn1C

>  <groupLabel>
0

$$$$
>  <structureSmilesString>
CCNc1c2c(nc(N)n3nc(-c4ccco4)nc23)nn1C

>  <groupLabel>
0

$$$$
>  <structureSmilesString>
CSc1c2c(nc(N)n3nc(-c4ccco4)nc23)nn1C

>  <groupLabel>
1

$$$$
>  <structureSmilesString>
COc1ccc(NC(=O)Nc2nc3nn(C)c(SC)c3c3nc(-c4ccco4)nn23)cc1

>  <groupLabel>
1

$$$$

---

# experimentalSystem: UniProt P0DMS8
# Sequence (P0DMS8 whole entry): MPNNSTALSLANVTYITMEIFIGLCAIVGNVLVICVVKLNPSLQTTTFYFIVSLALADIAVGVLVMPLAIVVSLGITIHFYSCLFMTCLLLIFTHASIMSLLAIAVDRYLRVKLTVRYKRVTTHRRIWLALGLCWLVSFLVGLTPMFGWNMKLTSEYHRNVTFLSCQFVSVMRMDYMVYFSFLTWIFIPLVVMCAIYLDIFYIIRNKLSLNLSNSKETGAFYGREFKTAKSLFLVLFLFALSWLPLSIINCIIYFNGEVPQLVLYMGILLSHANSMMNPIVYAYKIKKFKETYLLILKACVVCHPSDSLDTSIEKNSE
# methodNotes: Displacement of [3H]MRE 3008F20 binding at human A3 adenosine receptors expressed in CHO cells
# Parameters: expressed in transfected cells; host or cells: CHO cells
# assayConditions: Table 3: [3H]MRE 3008F20, human A3, CHO cells
pKi: −log10 of the molar value.

>  <compound>
Cn1nc2nc(N)n3nc(-c4ccco4)nc3c2c1Nc1ccc(O)cc1

>  <pKi>
6.51

$$$$
>  <compound>
CCNc1c2c(nc(NC(=O)Nc3ccc(OC)cc3)n3nc(-c4ccco4)nc23)nn1C

>  <pKi>
7.77

$$$$
>  <compound>
CSc1c2c(nc(NC(=O)Cc3ccc4c(c3)OCO4)n3nc(-c4ccco4)nc23)nn1C

>  <pKi>
6.96

$$$$
>  <compound>
CSc1c2c(nc(N)n3nc(-c4ccco4)nc23)nn1C

>  <pKi>
7.46

$$$$
>  <compound>
CCNc1c2c(nc(N)n3nc(-c4ccco4)nc23)nn1C

>  <pKi>
6.65

$$$$
>  <compound>
COc1ccc(NC(=O)Nc2nc3nn(C)c(SC)c3c3nc(-c4ccco4)nn23)cc1

>  <pKi>
6.67

$$$$
>  <compound>
CCCSc1c2c(nc(N)n3nc(-c4ccco4)nc23)nn1C

>  <pKi>
6.65

$$$$
>  <compound>
CCNc1c2c(nc(NC(=O)Nc3ccc(OC)cc3)n3nc(-c4ccco4)nc23)nn1C.Cl [Compound 55, hydrochloride salt]

>  <pKi>
8.05

$$$$
>  <compound>
CCNc1c2c(nc(NC(=O)Cc3ccc4c(c3)OCO4)n3nc(-c4ccco4)nc23)nn1C

>  <pKi>
6.74

$$$$
